From: paper PMC4965013

system: P. falciparum 3D7 trophozoites; experiment: Metabolomic fingerprint profiling LC-MS; type: cell-based, Plasmodium falciparum; conditions: metabolite Octoluse Bisphosphate; S2 Table Metabolomics, change in metabolite level after compound treatment
The threshold is inclusive: Octoluse Bisphosphate of exactly 0.03 counts as y; values below receive n.

INSERT INTO assay_data (compound, assigned_class) VALUES
  ('CC(C)(C)c1ccc(O)c(CNC2CCCCC2)c1 [MMV665785]', 'n'),
  ('Cc1ccc(N2C(=O)C3C(C2=O)C2(c4ccccc4)C(=O)C3(c3ccccc3)C(c3ccccc3)=C2c2ccccc2)cc1 (centres unmarked) [MMV666062]', 'n'),
  ('CCN(CC)CCNc1ncnc2c1[nH]c1ccc(Cl)cc12 [MMV396703]', 'n'),
  ('Cc1ccc(-c2cc3c(nn2)-c2ccccc2C3=O)cc1 [MMV666021]', 'y'),
  ('CCOC(=O)c1cn(CC)c2cc(N3CCCCC3)c(F)cc2c1=O [MMV665827]', 'y'),
  ('O=C1C(O)=C([C@H]2CC[C@H](c3ccc(Cl)cc3)CC2)C(=O)c2ccccc21 [Atovaquone, reference compound]', 'n'),
  ('Cc1cc(NC(=O)C2c3ccccc3C(=O)N(CC(C)C)C2c2cccs2)no1 (centres unmarked) [MMV006429]', 'n'),
  ('Cc1cc(C=C2SC(=Nc3ccccc3)N(C3CCCC3)C2=O)c(C)n1-c1ccc(Cl)cc1 [MMV666688]', 'n');

* * *

tested on: P. falciparum 3D7 trophozoites; assay: Metabolomic fingerprint profiling LC-MS; format: cell-based, Plasmodium falciparum; conditions: metabolite glycerate; S2 Table Metabolomics, change in metabolite level after compound treatment
Assign labels as follows, please: Satisfied for glycerate below -0.4; Not satisfied for glycerate equal to or exceeding -0.4.

INSERT INTO assay_data (molecule, assigned_class) VALUES
  ('Cc1ccc(-c2cc3nc4c(c(O)n3n2)CCCC4)cc1', 'Not satisfied'),
  ('Fc1ccc2[nH]c3c(NCCCN4CCOCC4)ncnc3c2c1', 'Not satisfied'),
  ('CSc1ccccc1C(=O)Nc1nc(-c2ccccn2)cs1', 'Satisfied'),
  ('CCOC(=O)c1cnc2ccc(CC)cc2c1O', 'Not satisfied'),
  ('COc1cccc(NC(=O)[C@H](C(C)C)n2c(=O)[nH]c3ccccc3c2=O)c1', 'Not satisfied'),
  ('COc1ccccc1CNC(=O)CCn1c(=O)[nH]c2ccccc2c1=O', 'Not satisfied'),
  ('COc1cccc(C=Cc2nc(=O)c3ccccc3o2)c1OC', 'Not satisfied'),
  ('COc1ccc2c(c1)OC(O)(C(F)(F)C(F)(F)F)CC2=O (centres unmarked)', 'Not satisfied'),
  ('Cc1ccc(-c2cc3c(SCC(=O)Nc4cc(C(F)(F)F)ccc4Cl)nccn3n2)cc1', 'Not satisfied'),
  ('Cc1cc(C)c2c(c1)OCN(Cc1ccccc1Cl)C2', 'Satisfied'),
  ('CCn1c(CN2CCN(Cc3ccccc3)CC2)nc2cc(NC(=O)c3cccs3)ccc21', 'Satisfied'),
  ('CSC1=NC(=Nc2c(C)cccc2C)C2(CCC(C(C)(C)C)CC2)N1c1ccc(Cl)cc1 (centres unmarked)', 'Satisfied'),
  ('CCOC(=O)c1cnc2c(C)cc(C)cc2c1Nc1ccc(OC)c(OC)c1', 'Not satisfied'),
  ('O=[N+]([O-])c1ccc(C=NNc2nc3ccccc3[nH]2)cc1', 'Satisfied'),
  ('O=C(NCC(c1ccsc1)N1CCCCCC1)c1ccc(C(F)(F)F)cc1 (centres unmarked)', 'Satisfied'),
  ('CCc1ccc(Nc2cc(C)c3ccc(O)cc3n2)cc1', 'Not satisfied'),
  ('CCOC(=O)c1cn(CC)c2cc(N3CCCCC3)c(F)cc2c1=O', 'Not satisfied');

* * *

tested on: P. falciparum 3D7 trophozoites; assay: Metabolomic fingerprint profiling LC-MS; assay type: cell-based, Plasmodium falciparum; conditions: S2 Table Metabolomics; metabolite orotate
Assign labels as follows, please: 1 for orotate below -0.02; 0 for orotate equal to or exceeding -0.02.

INSERT INTO measurements (molecule, assigned_class) VALUES
  ('Fc1ccc2[nH]c3c(NCCCN4CCOCC4)ncnc3c2c1', 0),
  ('CCc1c(C)c(=N)c2ccccc2n1C', 1),
  ('O=C(NCC(c1ccsc1)N1CCCCCC1)c1ccc(C(F)(F)F)cc1 (centres unmarked)', 1),
  ('CCC1(C)CC(CCNCc2ccccc2O)(c2ccc(C)cc2)CCO1 (centres unmarked)', 1),
  ('Cc1cc(Nc2ccc(Cl)cc2)n2nc(C(F)(F)F)nc2n1', 1),
  ('CC1CN(C(=O)c2sc3ccccc3c2Cl)CC(C)O1 (centres unmarked)', 0),
  ('CCOC(=O)c1cnc2c(C)cc(C)cc2c1Nc1ccc(OC)c(OC)c1', 1),
  ('Cc1ccc(Nc2nc(NCCO)c3ccccc3n2)cc1C', 0),
  ('COc1ccc(NC(=O)C2c3ccccc3C(=O)N(CC(C)C)C2c2cccs2)cc1Cl (centres unmarked)', 1),
  ('CN(C)CCCNc1c2ccccc2nc2ccccc12', 1),
  ('COc1ccc(-c2nc(NC(=O)CS(=O)(=O)c3ccc(F)cc3)sc2C)cc1', 1),
  ('COc1cccc(NC(=O)[C@H](C(C)C)n2c(=O)[nH]c3ccccc3c2=O)c1', 0),
  ('C[n+]1c2ccccc2nc2ccc(NCCO)cc21', 1),
  ('Cc1ccc(N2C3c4ccccc4N(S(=O)(=O)c4ccc(C)cc4)C2c2ccccc2N3S(=O)(=O)c2ccc(C)cc2)cc1', 0),
  ('CCn1c(CN2CCN(Cc3ccccc3)CC2)nc2cc(NC(=O)c3cccs3)ccc21', 0),
  ('CCOC(=O)c1c(C)n(-c2ccc(Cl)cc2)c2ccc(OC(=O)C=Cc3ccccc3)cc12', 0),
  ('OC(CNC1CCCCC1)Cn1c2ccccc2c2ccccc21 (centres unmarked)', 1);

* * *

Documented pyruvate across a set of compounds
test system: P. falciparum 3D7 trophozoites; test: Metabolomic fingerprint profiling LC-MS; format: cell-based, Plasmodium falciparum; details: metabolite pyruvate; S2 Table Metabolomics, change in metabolite level after compound treatment
measurement_kind: pyruvate

INSERT INTO assay_data (compound, measurement_kind, experimental_value) VALUES
  ('OC(CNC1CCCCC1)Cn1c2ccccc2c2ccccc21 (centres unmarked)', 'pyruvate', 0.735),
  ('Cc1cc(Nc2ccc3ccccc3c2)n2ncnc2n1', 'pyruvate', -1.9111),
  ('CCOC(=O)c1cnc2ccc(CC)cc2c1O', 'pyruvate', -0.6031),
  ('CCC(c1ccccc1)c1nn2c(-c3cccs3)nnc2s1 (centres unmarked)', 'pyruvate', 0.1322),
  ('COc1ccccc1CNC(=O)CCn1c(=O)[nH]c2ccsc2c1=O', 'pyruvate', -0.02123),
  ('CCCN(CCC)CC(O)COc1ccccc1C(=O)Nc1ccccc1 (centres unmarked)', 'pyruvate', 0.467),
  ('O=C1C(O)=C([C@H]2CC[C@H](c3ccc(Cl)cc3)CC2)C(=O)c2ccccc21 [Atovaquone, reference compound]', 'pyruvate', -0.07747),
  ('O=C(NCC(c1ccsc1)N1CCCCCC1)c1ccc(C(F)(F)F)cc1 (centres unmarked)', 'pyruvate', -1.162);

* * *

system: P. falciparum 3D7 trophozoites; experiment: Metabolomic fingerprint profiling LC-MS; assay type: cell-based, Plasmodium falciparum; conditions: metabolite level change after treatment
Assign labels as follows, please: 1.0 for Sedoheptoluse bisphosphate below -0.1; 0.0 for Sedoheptoluse bisphosphate equal to or exceeding -0.1.

INSERT INTO measurements (compound, assigned_class) VALUES
  ('COc1ccc2c(c1)OC(O)(C(F)(F)C(F)(F)F)CC2=O (centres unmarked)', 0.0),
  ('C[n+]1c2ccccc2nc2ccc(NCCO)cc21', 0.0),
  ('COc1ccc(-c2cc3c(SCC(=O)Nc4cc(C(F)(F)F)ccc4Cl)nccn3n2)cc1', 0.0),
  ('CCn1c(CN2CCN(Cc3ccccc3)CC2)nc2cc(NC(=O)c3cccs3)ccc21', 0.0),
  ('Cc1cc(C=C2SC(=Nc3ccccc3)N(C3CCCC3)C2=O)c(C)n1-c1ccc(Cl)cc1', 1.0),
  ('O=C(NCC(c1ccsc1)N1CCCCCC1)c1ccc(C(F)(F)F)cc1 (centres unmarked)', 1.0),
  ('Cc1ccc(-c2cc3c(nn2)-c2ccccc2C3=O)cc1', 1.0),
  ('CCc1c(C)c(=N)c2ccccc2n1C', 1.0),
  ('CCOc1ccc(-c2nonc2NC(=O)c2cccc(C)c2)cc1OCC', 1.0),
  ('CCN(CC)CCNc1ncnc2c1[nH]c1ccc(Cl)cc12', 0.0),
  ('COc1ccc(C(=O)Nc2nonc2-c2ccc(OC)c(OC)c2)cc1Cl', 1.0),
  ('COc1cccc(NC(=O)[C@H](C(C)C)n2c(=O)[nH]c3ccccc3c2=O)c1', 1.0),
  ('Cc1ccc(Nc2nc(-c3ccccn3)cs2)cc1', 1.0),
  ('COc1ccc(-c2nc(NC(=O)CS(=O)(=O)c3ccc(F)cc3)sc2C)cc1', 1.0),
  ('CCOC(=O)C1=C(c2ccccc2)N=c2sc(=Cc3cc(C)n(-c4ccc(F)cc4)c3C)c(=O)n2C1c1cccc(OC)c1OC (centres unmarked)', 0.0),
  ('CCOC(=O)c1ccc2nc(-c3ccccc3)cc(O)c2c1', 1.0),
  ('O=C(O)C1Cc2c([nH]c3ccccc23)C(c2ccc(Cl)cc2Cl)N1 (centres unmarked)', 0.0),
  ('CCCCCC(=O)N1c2ccccc2N=C2CC(c3ccc(OC)c(OC)c3)CC(O)=C2C1c1ccc(C(F)(F)F)cc1 (centres unmarked)', 0.0),
  ('CCCCCCOC(=O)C1=C(C)NC(=O)NC1c1ccccc1F (centres unmarked)', 1.0),
  ('CCOC(=O)c1cnc2c(C)cc(C)cc2c1Nc1ccc(OC)c(OC)c1', 1.0);
